System: T47D
Procedure Details: NCI tumour cell line growth inhibition, 48 h
Active and inactive are the calls of the source. Rule as the data show it: active = GI50 up to about 1.1 µM and inactive = higher.
Answer with one of the outcomes given here: active, inactive

# count of solved cases: 5
{"Compound": "COc1cc2c(c(OC)c1)C(C)=NC(C)C2 (stereo unspecified)", "Cat": "inactive"}
{"Compound": "C[N+]1(C)C/C(=C\\C=C\\c2ccccc2)C(=O)/C(=C/C=C/c2ccccc2)C1", "Cat": "inactive"}
{"Compound": "COc1ccc([C@H]2C=C(c3cc(F)c(Cl)cc3Cl)NC(=S)N2)cc1", "Cat": "inactive"}
{"Compound": "CCOP(=O)(/C=C\\n1cc(C)c(=O)[nH]c1=O)OCC", "Cat": "inactive"}
{"Compound": "COc1ccccc1C1(c2c(OC)c(=O)c2=O)SCCCS1", "Cat": "inactive"}

Which result was noted for this compound in the test: c1ccc(C(NC2=NCCO2)C2CC2)cc1 (stereo unspecified)
inactive

Which result was noted for this compound in the test: Cc1ccc(/C=C2\CCS(=O)(=O)c3ccccc3C2=O)cc1
inactive

Which result was noted for this compound in the test: O=[N+]([O-])c1cc(C(F)(F)F)ccc1S(=O)(=O)N[C@@H]1CCCC[C@H]1NS(=O)(=O)c1ccc(C(F)(F)F)cc1[N+](=O)[O-]
inactive

Which result was noted for this compound in the test: Cc1cccc(/C=N\NC(=S)N2CCCCC2)n1
active

Which result was noted for this compound in the test: S=c1[nH]nc(Cn2c3ccc(Br)cc3c3nc4ccccc4nc32)o1
inactive

Which result was noted for this compound in the test: Cc1ccc(N2C=Nn3c(nc4sc5c(c4c3=O)CCCC5)C2)cc1
inactive

###

Test system: SK-MEL-28
Procedure Details: NCI tumour cell line growth inhibition, 48 h
Activity calls are given as the source filed them. No stated cut-off is given here; in the data, active = GI50 up to about 1.1 µM and inactive = higher.
Answer with one of the outcomes given here: yes (1) (active), no (0) (inactive)

Which result was noted for this compound in the test: Cc1csc(NCc2ccc(Cl)cc2)n1
no (0)

Which result was noted for this compound in the test: C=C(C)C(=O)[C@@]12C(=O)[C@@H](C)CC[C@H]1[C@H](C)C[C@@H]2C=C(C)C
no (0)

Which result was noted for this compound in the test: CCCCCCCCCCCCNC(=S)OCCCC
no (0)

###

So I've got a bunch of compounds here, and I need their GI50 values.
System: OVCAR-4
Procedure Details: NCI tumour cell line growth inhibition, 48 h
Active and inactive are the calls of the source. No stated cut-off is given here; in the data, active = GI50 up to about 1.1 µM and inactive = higher.

{"Compound": "O=C1NC(Nc2cccc(Cl)c2)=N/C1=C\\c1ccc(Cl)c(Cl)c1", "GI50": "1.9 µM (inactive)"}
{"Compound": "N#CSc1[nH]cnc1C(N)=O", "GI50": "> 100 µM (inactive)"}
{"Compound": "CC(=O)OCC1OC(n2c(C)c(/N=N/c3ccccc3)c(C)c(C#N)c2=S)C(OC(C)=O)C(OC(C)=O)C1OC(C)=O (stereo not given)", "GI50": "48.9 µM (inactive)"}
{"Compound": "COC(=O)CCC(NC(=S)N/N=C/c1ccccn1)C(=O)OC (stereo not given)", "GI50": "> 100 µM (inactive)"}
{"Compound": "c1ccc(-c2sc(-c3ccccc3)c3c2C(c2ccccc2)c2c(-c4ccccc4)sc(-c4ccccc4)c2C3c2ccccc2)cc1 (stereo not given)", "GI50": "> 100 µM (inactive)"}

I need GI50 for every entry listed below, if you could help.
1. COc1ccc(C2C(C#N)=C(S)N(C3OC(CO)C(O)C(O)C3O)C(c3ccccc3)=C2C(C)=O)cc1 (stereo not given)
2. CCOC(OCC)N1C(=O)C2(C(OCC)OCC)CC3C(OC(=O)N3N)c3cccc1c32 (stereo not given)
3. COC(=O)C1=CC2C(=O)OC1C1C(=O)NC(=O)C21 (stereo not given)
4. CCOP(=O)(/C=C\n1cc(C)c(=O)[nH]c1=O)OCC
5. CN(C)CCNC(=O)c1cccc2[nH]c(-c3ccccc3)nc12

1. > 10 µM (inactive)
2. > 100 µM (inactive)
3. 60.4 µM (inactive)
4. > 100 µM (inactive)
5. 28.4 µM (inactive)

I need GI50 for every entry listed below, if you could help.
1. CC1(C)O[C@@H](CC/C=C/CO)[C@H](CC/C=C/CO)O1
2. Cc1cccc(C(C)C)c1N1C(=O)C(=O)C(c2nc3ccccc3o2)C(=O)C1=O
3. CC(C)(C)OC(=O)NC12C3C4C1C1C2C3C41NC(=O)OC(C)(C)C (stereo not given)
4. CCCC(=O)C1=C(O)C(Cc2c(O)c(C)c(O)c(C(=O)CCC)c2O)=C(O)C(C)(C)C1=O
5. CCCn1c(=O)c(N2CCN(c3ccccc3)CC2)nc2sc3ccccc3c21
6. COc1ccc(/N=N/c2c(C)c(C#N)c(=S)n(C3OC(CO)C(O)C(O)C3O)c2C)cc1 (stereo not given)

> 100 µM (inactive)
> 100 µM (inactive)
35.4 µM (inactive)
43.6 µM (inactive)
> 100 µM (inactive)
57.4 µM (inactive)

###

So I've got a bunch of compounds here, and I need their GI50 values.
Test system: A498
Procedure Details: NCI tumour cell line growth inhibition, 48 h
Activity calls are given as the source filed them. Rule as the data show it: active = GI50 up to about 1.1 µM and inactive = higher. Where a SMILES comes first, the peptide text is derived from it. The star is where a group is joined. Boc = CC(C)(C)OC(=O)*

Some solved cases for reference:
{"Compound": "CCN(CC)c1ccc2cc3ccc(N(CC)CC)cc3[o+]c2c1", "Subject Of Test": "A498", "GI50": "14.6 µM (inactive)"}
{"Compound": "CNC(=O)CNC(=O)C(NC(=O)CNC(=O)C1CCCN1C(=O)C(C)NC(=O)C(NC(=O)OC(C)(C)C)C(C)C)C(C)C (centres undefined) (Boc-VAPGVG-NHMe; configuration not given here)", "Subject Of Test": "A498", "GI50": "> 100 µM (inactive)"}

I need GI50 for every entry listed below, if you could help.
1. COc1ccc2c(c1)[n+]([O-])c(-c1ccccc1)c(N)[n+]2[O-]
2. Cc1ccc2[nH]c(Sc3c([N+](=O)[O-])ncn3C)nc2c1

["69.3 µM (inactive)", "25.1 µM (inactive)"]

###

System: HT-29
Procedure Details: NCI tumour cell line growth inhibition, 48 h
Calls of active or inactive are those of the source. Cut-off read from the data, not from the text of the source: active = GI50 up to about 1.1 µM and inactive = higher.
So I've got a bunch of molecules here, and I need their GI50 values.

{"Molecule": "CC(C)C(N)=O [ISOBUTYRAMIDE]", "GI50": "> 5000 µM (inactive)"}
{"Molecule": "N#C/C(N)=C(C#N)/N=C/NCc1ccccc1", "GI50": "> 100 µM (inactive)"}

I need GI50 for every entry listed below, if you could help.
1. COc1c2cc([N+](=O)[O-])cc1CN(C(=O)C(F)(F)F)CCOCCN(C(=O)C(F)(F)F)C2
2. Cc1nc2c(sc(=S)n2-c2ccccc2)c(=O)[nH]1
3. O=NN1CCN=C1c1ccc([N+](=O)[O-])cc1
4. O=C(NNC(=O)c1cc(/C=C/c2cccc([N+](=O)[O-])c2)nc(S)n1)Nc1ccc(Cl)cc1

1: > 100 µM (inactive); 2: > 100 µM (inactive); 3: > 100 µM (inactive); 4: 41.8 µM (inactive)

I need GI50 for every entry listed below, if you could help.
1. Cc1ccc([N+](=O)[O-])cc1S(=O)(=O)Nc1ccc(C2=NN(S(=O)(=O)c3cc([N+](=O)[O-])ccc3C)C(c3ccco3)C2)cc1 (centres undefined)
2. COc1ccc(NC(=O)CC(=O)N2N=C(c3ccccc3)C(/N=N/c3ccc(S(=O)(=O)CCOS(=O)(=O)O)cc3)C2=O)cc1 (centres undefined)
3. COc1cc2c(cc1OC)C(=O)Cc1ccc(OC)c(OC)c1CN(C)CC2

1. 54 µM (inactive)
2. > 100 µM (inactive)
3. > 100 µM (inactive)

###

So I've got a bunch of molecules here, and I need their GI50 values.
Tested on: CAKI-1
Procedure Details: NCI tumour cell line growth inhibition, 48 h
Active and inactive are the calls of the source. Cut-off read from the data, not from the text of the source: active = GI50 up to about 1.1 µM and inactive = higher.

{"Molecule": "O=C(NC(Cc1ccc(I)cc1)C(=O)O)c1ccc(I)cc1 (configuration not stated)", "GI50": "> 100 µM (inactive)"}
{"Molecule": "CC12CC(c3ccccc3O1)C(C(=O)Nc1cccc(F)c1)C(=O)N2 (configuration not stated)", "GI50": "92.3 µM (inactive)"}
{"Molecule": "COc1ccccc1Cc1nc(-c2ccccc2)nn(C2OC(COC(C)=O)C(OC(C)=O)C(OC(C)=O)C2OC(C)=O)c1=S (configuration not stated)", "GI50": "16.8 µM (inactive)"}

I need GI50 for every entry listed below, if you could help.
1. O=C(NC(=O)c1ccccc1[N+](=O)[O-])Nc1ccc(Oc2ncc(Br)cn2)c(Cl)c1
2. COc1cccc(C=O)c1C(=O)c1cc(O)ccc1O
3. Cc1ccc(/C=C2\CCS(=O)(=O)c3ccccc3C2=O)cc1
4. Cc1ccc2nc(N)[nH]c(=O)c2c1Sc1ccncc1

["0.0194 µM (active)", "23.7 µM (inactive)", "18.3 µM (inactive)", "31.6 µM (inactive)"]
